- methodNotes: HILIC, Merck SeQuant ZIC-HILIC, 25 °C, 0.25 mL/min; A: water + 16 mM ammonium formate; B: acetonitrile + 0.1% formic acid, pH 3; gradient (min/%B) 0/97 2/97 10/70 15/10 17/10 18/97 25/97
- measurementConditions: stereoisomer not certain
Binary call on LC retention time: Yes from 2 min upward, No beneath that.

[[record]]
compound = "NCCc1c[nH]c2ccccc12 [TRYPTAMINE]"
label = "Yes"

[[record]]
compound = "CC(C)(N)C(=O)O [2-AMINOISOBUTYRATE]"
label = "Yes"

[[record]]
compound = "CCCCC(CC)COC(=O)c1ccccc1C(=O)OCC(CC)CCCC (stereo not given) [BIS(2-ETHYLHEXYL)PHTHALATE]"
label = "No"

[[record]]
compound = "O=c1ccn(C2CC(O)C(CO)O2)c(=O)[nH]1 (stereo not given) [DEOXYURIDINE]"
label = "Yes"

[[record]]
compound = "CCCCCCCCCCCCCCCCCCCCCCC(=O)[O-] [TRICOSANOATE]"
label = "No"

